Entries and their growth inhibition values follow.
- protocol.text: NCI Yeast Anticancer Drug Screen. Data for the rad50 strain (AID 155);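 note: 0% = growth of vehicle-only cultures of the same strain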
- test.conditions: S. cerevisiae rad50 strain growth inhibition, stronger effect = higher value; at 50.0 µM unless noted
Compounds without any hit were thinned out: in the full panel of roughly 79,000, 15% have a hit.
Only the number, expressed in %, is required.

Cc1cc(C)nc(NS(=O)(=O)c2ccc(NC(=O)c3cccc4c(Nc5ccc(S(=O)(=O)Nc6nc(C)cc(C)n6)cc5)c5ccc(Cl)cc5nc34)cc2)n1 = 27.4
OC1CN(c2ccc(Br)cc2)CC(O)CN(c2ccc(Br)cc2)C1 (stereo not drawn) = 98.7
Oc1ccc(C(Cc2ccccc2)NCc2ccccc2)cc1 (stereo not drawn) = -8.15
Cc1ccc(S(=O)(=O)N2CCCSCC2)cc1 = -11.6
NC(=S)Nc1ccc(-c2ccccc2)cc1 = 17.4
CS(=O)(=O)CS(C)(=O)=O = 18.9
COc1ccc(/C=N\NC(=O)c2cnccn2)cc1 = 9.15

# input for lookup
Tell me measured growth inhibition for c1ccc(N=C(Nc2ccccn2)Nc2ccccn2)nc1 please. 5.15

* * *

- protocol.text: NCI Yeast Anticancer Drug Screen. Data for the cln2 rad14 strain (AID 165);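 note: 0% = growth equal to vehicle treated cultures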
- test.conditions: S. cerevisiae cln2 rad14 strain; at 50.0 µM unless noted
The panel holds about 79,000 compounds, 15% with a hit somewhere; the sample as a whole holds those more often. The source made the active and inactive calls. Rule as the data show it: active = growth inhibition above about 70%; inactive = the rest.
API: response.call in active, inactive

Please review the following examples before continuing.
COc1ccc(C(=O)CCC(=O)O)c(O)c1 = inactive
CCC(C)C/C(C)=N/Nc1ccc([N+](=O)[O-])cc1[N+](=O)[O-] (stereo not drawn) = inactive
O=C(O)c1ccc([N+](=O)[O-])cc1Br = inactive

Each molecule tested received a call. Report the one for O=[N+]([O-])c1cccc(S/N=C/c2ccccc2O)c1 . active

Test call, this molecule: CCN(CC)CCNc1ccc2ncn3c4cc(=O)ccc4c(O)c1c23 inactive

Dear colleague, could you share the recorded outcome for Cn1ccnc1Sc1c([N+](=O)[O-])ncn1C when you have a moment? inactive

Answer briefly: the call reported for CC1(C)OC(CCl)C2OC(C)(C)OC(CCl)C2O1 (stereo not drawn) in this assay. inactive

Assay result, entry C=CCOC(=O)NC(CC(C)C)C(=O)NCC(N)=O (stereo not drawn) — outcome? inactive

For this molecule, state the assay outcome: NC(N)=NC(N)=Nc1ccc(S(=O)(=O)O)cc1 inactive

// return assay outcome for CCOC(=O)c1cnc2sc3ccc4ccccc4c3n2c1=O inactive

Hi, sorry to bother you, what did the test record for CSc1ncn(C)c1C(N)=O ? inactive

What is the recorded call for this molecule in the test? CN(C)c1ccc(NC(=O)C(c2ccccc2)c2ccccc2)cc1 inactive

Tell me the assay call for CC(=O)N1C(=O)CC23c4cccc([N+](=O)[O-])c4C(=O)N2CCCN13 (stereo not drawn) please. inactive

State the result this test recorded for COCC(C)OC(=O)COc1ccccc1 (stereo not drawn) . inactive

For CCOC(C)=Nc1cc(OC)cc2c1NC(=O)CCS2 , which call appears in the assay record? inactive

Which outcome was assigned to Clc1cccc(C2SCc3nc4ccccc4n32)c1 (stereo not drawn) in this test? inactive

Tell me the recorded outcome of this test for O=c1oc(=O)c2cc3c(=O)oc(=O)c3cc12 . inactive

Field: outcome | Entry: [N-]=[N+]=Nc1cccc(-c2n[nH]c(Cl)cc2=O)c1 inactive

// outcome(item) with item = C=CCS(=O)(=O)CC=C inactive

For COC(=O)c1ccccc1NC(=O)Cc1ccccc1 , which call appears in the assay record? inactive

Would you mind telling me which call this test gave ON=C1CCC(c2ccccc2)CC1 (stereo not drawn) ? inactive

Which outcome was entered for the molecule N#C/C(=C/NC(N)=S)C(N)=O in this test? inactive
